Entries and their MIC
# Tested on: Streptococcus pyogenes
# assay details: Antibacterial activity against Streptococcus pyogenes C-203 SP1-1
# Format: functional
Supply the numeric figure in µg/mL, leaving out any unit text.

Worked set:
NCC1CCN(c2c(F)cc3c(=O)n(N)c(=O)n(C4CC4)c3c2Cl)C1 (centres undefined)	0.13
CCOc1c(N2CCC(N)C2)c(F)cc2c(=O)n(N)c(=O)n(C3CC3)c12 (centres undefined)	64
Cc1c(N2CC[C@@H]([C@H](C)N)C2)c(F)c(C(F)F)c2c(=O)n(N)c(=O)n(C3CC3)c12	0.25
N[C@H]1CCN(c2cc3c(cc2F)c(=O)n(N)c(=O)n3C2CC2)C1	16
NCC1CCN(c2c(Cl)cc3c(=O)n(N)c(=O)n(C4CC4)c3c2Cl)C1 (centres undefined)	2

CN[C@H]1CCN(c2c(F)cc3c(=O)n(N)c(=O)n(C4CC4)c3c2Cl)C1 has a reported MIC of 8

Cc1c(N2CC[C@@H]([C@H](C)N)C2)c(F)cc2c(=O)n(N)c(=O)n(C3CC3)c12 has a reported MIC of 0.015

O=C(O)c1cn(C2CC2)c2cc(N3CCNCC3)c(F)cc2c1=O has a reported MIC of 2

====

# Tested on: Streptococcus pyogenes
# assay details: Antibacterial activity against Streptococcus pyogenes C-203 SP1-1
# Assay type: functional
quantity name: log10 MIC (log10 of the value in µg/mL)
Recall that a logarithmic scale is used here: each number is log10 of MIC in µg/mL.

Worked set:
NC1CCN(c2c(F)c(F)c3c(=O)n(N)c(=O)n(C4CC4)c3c2F)C1 (stereo not given)	1.20
Nc1c(F)c(N2CCC(N)C2)c(F)c2c1c(=O)n(N)c(=O)n2C1CC1 (stereo not given)	1.51
N[C@H]1CCN(c2c(F)cc3c(=O)n(N)c(=O)n(C4CC4)c3c2Cl)C1	0.30

Cc1c(N2CCC(N)C2)c(F)cc2c(=O)n(N)c(=O)n(C3CC3)c12 (stereo not given) has a reported log10 MIC of -0.30

Cc1c(F)c(N2CC[C@@H]([C@H](C)N)C2)c(C)c2c1c(=O)n(N)c(=O)n2C1CC1 has a reported log10 MIC of -1.52

COc1c(N2CCC(N)C2)c(F)cc2c(=O)n(N)c(=O)n(C3CC3)c12 (stereo not given) has a reported log10 MIC of 0.60

NC1CCN(c2c(F)cc3c(=O)n(N)c(=O)n(C4CC4)c3c2F)C1 (stereo not given) has a reported log10 MIC of 0.60

N[C@H]1CCN(c2c(F)cc3c(=O)n(N)c(=O)n(C4CC4)c3c2C(F)(F)F)C1 has a reported log10 MIC of 0.60
